- System: OVCAR-4 ovarian
- Assay details: NCI tumour cell line growth inhibition, 48 h
The molecules listed here are annotated with their TGI.
// units = µM; emit number, no label

Field: example entries. Status: answers known.
>  <Molecule>
CCN(CC)CC.CCOc1ccc(NC(=O)N=C=[N-])cc1.[CH-]1CCCCC1.[CH-]1CCCCC1.[CH-]1CCCCC1.[Cl-].[Sn+4]

>  <TGI / µM>
0.139

$$$$
>  <Molecule>
CCCCCCCCCCCCNC(=O)[C@H]1CSC(c2cc3ccccc3s2)N1 (some centres not stated)

>  <TGI / µM>
1.97

$$$$

Now look at this entry.
Problem: Any idea what its TGI is? The molecule is CCN(CC)CCCC(C)Nc1cc(-c2ccc(C(F)(F)F)cc2)c(C#N)c2nc3ccccc3n12 (configuration not stated)
Solution: 10.1

----------
Overview of recorded TGI for various molecules
- System: SK-MEL-28 melanoma
- Assay details: NCI tumour cell line growth inhibition, 48 h

>  <Molecule>
Cc1ccc(-c2cc(-c3ccc(Cl)cc3)nc(/N=C3\C(=O)N(CN4CCOCC4)c4ccccc43)n2)cc1

>  <TGI>
> 100 µM

$$$$
>  <Molecule>
O=C(Nc1cc2c(=O)[nH]c3ccccc3c2oc1=O)c1cnccn1

>  <TGI>
> 100 µM

$$$$
>  <Molecule>
CNC(=O)c1c(NC(=O)c2ccc(C(F)(F)F)cc2)sc2c1CCC(=O)C2

>  <TGI>
3.67 µM

$$$$
>  <Molecule>
N=c1oc2c(Br)cc(Br)cc2cc1C(=O)Nc1ccccn1

>  <TGI>
> 100 µM

$$$$
>  <Molecule>
NC(=O)NC(=O)CCC(NS(=O)(=O)c1ccccc1)C(=O)NC(N)=O (stereo unspecified)

>  <TGI>
> 100 µM

$$$$

Now for the molecule whose TGI we want.
Problem: What does the record list as TGI for O=C1/C=C/[C@@H](O)[C@@H]2C[C@@H](O)C[C@H]2/C=C/CCC[C@H](CCc2ccc(C(F)(F)F)cc2)O1 ?
Solution: 0.361 µM

----------
- System: K-562 leukemia
- Assay details: NCI tumour cell line growth inhibition, 48 h
Outcome measure: TGI

Worked set:
>  <Compound>
COC(=O)[C@@]1(Cc2ccccc2)[C@H]2c3cc(C(=O)N4CCCC4)n(Cc4ccc(OC)c(OC)c4)c3C[C@H]2CN1C(=O)c1ccccc1

>  <Result>
37.3 µM

$$$$
>  <Compound>
CC1=CC=C2c3ccccc3C=CN2C(=O)C1

>  <Result>
> 100 µM

$$$$
>  <Compound>
CCN1CCN(c2nc3ccccc3nc2C(=O)c2ccc(OC)cc2)CC1

>  <Result>
> 100 µM

$$$$
>  <Compound>
O=C1Oc2ccccc2C(=O)/C1=C/N1C(=O)/C(=C/c2ccc3c(c2)OCO3)SC1=S

>  <Result>
35.7 µM

$$$$
>  <Compound>
C=CCc1c(C)nc(C)nc1N/N=C/C=C/c1ccccc1

>  <Result>
87.4 µM

$$$$
>  <Compound>
O=c1[nH]cc(/C=N\Nc2ccccc2)c(=O)[nH]1

>  <Result>
> 100 µM

$$$$
>  <Compound>
CC(=O)OCC1OC(n2c(C#N)cc(=O)[nH]c2=O)CC1OC(C)=O (stereo unspecified)

>  <Result>
> 100 µM

$$$$
>  <Compound>
CC(=O)NC(CCCCN(Cc1ccccc1)C(=O)NCCCl)C(=O)NCc1ccccc1 (stereo unspecified)

>  <Result>
> 100 µM

$$$$
>  <Compound>
CCSC1=N/C(=C\c2ccco2)C(NN)=N1

>  <Result>
> 50 µM

$$$$
>  <Compound>
CCc1n[nH]c(=O)n1N1C(=O)CCC1=O

>  <Result>
> 100 µM

$$$$

Below: the item to evaluate.
Problem: Recorded TGI for C#Cc1c(C)c(/C=C/C(C)=C/C=C/C(C)=C/C(=O)OC)n(C)c1C , please?
Solution: > 100 µM

Origin of measurements: PubChem BioAssay (NCI)
